Assay: pH values of samples used in Microtox test
Type: physicochemical
Conditions: sample used in Microtox test
Structures can show the parent of a compound that is named as a salt.
EXPERIMENTAL_READOUT: pH
Reply with just the number.

Consider OC[C@@H](O)[C@@H](O)[C@H](O)[C@@H](O)CO . Its measured pH is 7.446

Consider OC[C@@H](O)[C@@H](O)[C@H](O)[C@H](O)CO . Its measured pH is 6.390

Consider CCCCCCCCCCCCOS(=O)(=O)O [Sodium lauryl sulfate (SLS), Sodium lauryl sulfate] . Its measured pH is 6.779

Next:
Consider CCCCc1nc(Cl)c(CO)n1Cc1ccc(-c2ccccc2-c2nn[nH]n2)cc1 [LOS-K, Losartan potassium, reference compound] . Its measured pH is 7.750

====

Tested on: Aliivibrio fischeri (strain NRRL B-11177)
Assay: modified Microtox Basic Solid Phase Test (bioluminescence inhibition)
Type: cell-based
Settings: Aliivibrio fischeri, NRRLB11177, 0.25 h, 15 min of exposure; 95% confidence interval in brackets; read-out: EC50 15 min
Where a name gives a salt, the structure may show the parent alone.
EXPERIMENTAL_READOUT: EC50 (µg/mL)
State the answer as a number, implicitly in µg/mL.

Consider CNC[C@H](O)[C@@H](O)[C@H](O)[C@H](O)CO . Its measured EC50 is 19.7

Consider OC[C@@H](O)[C@@H](O)[C@H](O)[C@H](O)CO . Its measured EC50 is 5400

Consider CCCCCCCCCCCCOS(=O)(=O)O [Sodium lauryl sulfate (SLS), Sodium lauryl sulfate] . Its measured EC50 is 0.8

Now, please, on to the next molecule.
Consider OC[C@H]1O[C@@H](O[C@H]2[C@H](O)[C@@H](O)[C@@H](O)O[C@@H]2CO)[C@H](O)[C@@H](O)[C@H]1O [Lactose monohydrate] . Its measured EC50 is 14000

====

Test: pH values of samples used in Microtox test
Type: physicochemical
Settings: sample used in Microtox test
Quick list: pH per entry.
Reply with just the number.

Sample answers from the record:
Consider CCCc1nc2c(C)cc(-c3nc4ccccc4n3C)cc2n1Cc1ccc(-c2ccccc2C(=O)O)cc1 [TEL, Telmisartan, reference compound] . Its measured pH is 8.036

Consider CCCCC(=O)N(Cc1ccc(-c2ccccc2-c2nnn[nH]2)cc1)[C@H](C(=O)O)C(C)C [VAL, Valsartan, reference compound] . Its measured pH is 4.970

Now, please, on to the next compound.
Consider OC[C@H]1O[C@@H](O[C@H]2[C@H](O)[C@@H](O)[C@@H](O)O[C@@H]2CO)[C@H](O)[C@@H](O)[C@H]1O [Lactose monohydrate] . Its measured pH is 5.113

====

Assay: modified Microtox Basic Solid Phase Test (bioluminescence inhibition)
Type: cell-based, Aliivibrio fischeri
Conditions: Aliivibrio fischeri, Toxicity Category (Based on EC50, 30 min)
Where a name gives a salt, the structure may show the parent alone.
EXPERIMENTAL_READOUT: EC50 at 30 min

Sample answers from the record:
Consider CCCCCCCCCCCCOS(=O)(=O)O [Sodium lauryl sulfate (SLS), Sodium lauryl sulfate] . Its measured EC50 at 30 min is < 1 mg/L

Consider OC[C@@H](O)[C@@H](O)[C@H](O)[C@H](O)CO [Mannitol] . Its measured EC50 at 30 min is > 100 mg/L

Consider OC[C@@H](O)[C@@H](O)[C@H](O)[C@@H](O)CO [Sorbitol] . Its measured EC50 at 30 min is > 100 mg/L

Consider CNC[C@H](O)[C@@H](O)[C@H](O)[C@H](O)CO [Meglumine] . Its measured EC50 at 30 min is 10 to 100 mg/L

Now, please, on to the next compound.
Consider OC[C@H]1O[C@@H](O[C@H]2[C@H](O)[C@@H](O)[C@@H](O)O[C@@H]2CO)[C@H](O)[C@@H](O)[C@H]1O [Lactose monohydrate] . Its measured EC50 at 30 min is > 100 mg/L
